experimentalSystem: IDO1 (Homo sapiens)
assaySummary: IDO1 Cellular Assay in HeLa Cells Stimulated with IFNγ
Assay type: cell-based
measurementConditions: read-out: Hela IC50
Where a name gives a salt, the structure may show the parent alone.
readoutLabel: IC50 (nM)
One number for each entry, in nM.

Below: 3 compounds and their reported IC50.
{"compound": "CC(NC(=O)c1ccc(F)cc1)c1ccc2c(n1)CCCN2c1cc(F)ccn1 (stereo not shown)", "IC50 / nM": 74.5}
{"compound": "Cc1nccc(N2CCCc3nc(C4(C(=O)Nc5ccc(F)cc5)CC5(CC5)C4)ccc32)n1 [Example 415, 2,2,2-trifluoroacetate]", "IC50 / nM": 3.19}
{"compound": "COC[C@@H](C)OC(=O)N1CCCc2nc(C(C)NC(=O)c3ccc(F)cc3)ccc21 (stereo partly shown)", "IC50 / nM": 2.9}

Next compound, IC50 to be filled in.
Documented IC50 of Cc1nc(N2CCCc3nc(C(C)NC(=O)c4ccc(Cl)cc4)ccc32)c2cc(F)ccc2n1 (stereo not shown) [Example 360, trifluoroacetate] : 25.6

* * *

Please provide measured IC50 for the entries that follow.
experimentalSystem: IDO1 (Homo sapiens, UniProt P14902)
Sequence (P14902 whole entry): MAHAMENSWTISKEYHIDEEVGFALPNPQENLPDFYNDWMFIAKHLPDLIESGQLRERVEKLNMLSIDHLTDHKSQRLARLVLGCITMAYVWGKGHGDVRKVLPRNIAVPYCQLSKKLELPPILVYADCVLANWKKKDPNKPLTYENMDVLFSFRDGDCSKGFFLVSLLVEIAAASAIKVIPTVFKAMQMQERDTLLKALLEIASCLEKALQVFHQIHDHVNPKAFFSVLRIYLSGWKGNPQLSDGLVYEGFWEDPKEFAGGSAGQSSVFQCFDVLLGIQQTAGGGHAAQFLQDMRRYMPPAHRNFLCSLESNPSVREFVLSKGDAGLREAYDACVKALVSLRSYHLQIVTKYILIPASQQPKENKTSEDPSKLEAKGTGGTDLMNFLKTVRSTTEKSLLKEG
assaySummary: IDO1 Cellular Assay in HeLa Cells Stimulated with IFNγ
Assay type: cell-based
measurementConditions: about 48 hours, read-out: Hela IC50
Counter-ions that a name gives are not always drawn.
Answers are plain numbers, in nM.

{"compound": "Cc1cccc(C(=O)N2CCCc3nc(C(C)NC(=O)c4ccc(F)cc4)ccc32)n1 (stereo not drawn) [Example 281, trifluoroacetate]", "measureUnit": "nM", "IC50": 3}
{"compound": "COC(=O)N1CCCc2nc(C3(C(=O)Nc4ccc(F)cc4)CC3)ccc21", "measureUnit": "nM", "IC50": 21.8}

Now consider the entry below.
The measured IC50 associated with `O=C(N1CCCc2cc(C3(C(=O)Nc4ccc(F)cc4)CCC3)ccc21)C1(F)CC1` reads 3.3

* * *

Could you please report measured log10 IC50 for the items listed next?
experimentalSystem: IDO1 (Homo sapiens, UniProt P14902)
assaySummary: IDO1 Cellular Assay in HeLa Cells Stimulated with IFNγ
Assay type: cell-based
measurementConditions: about 48 hours, read-out: Hela IC50
Could you please treat all values as log10 of IC50 in nM?

Take a look at these entries with their results.
{"compound": "COC(=O)N1CCCc2nc(C(C)C(=O)Nc3ccc(Cl)cc3)ccc21 (stereo not drawn) [Example 223]", "log10 IC50": 1.03}
{"compound": "O=C(OC1CC1)N1CCc2cc(C3(C(=O)Nc4ccc(Cl)cc4)CCC3)ccc21 [Example 273]", "log10 IC50": 0.30}
{"compound": "O=C(Nc1ccc(F)cc1)C(c1ccc2c(n1)CCCN2C(=O)C1CC1)C1CC1 (single isomer, unassigned) [Example 262]", "log10 IC50": 1.04}
{"compound": "CC(C(=O)Nc1ccc(F)cc1)c1ccc2c(c1)CCCN2C(=O)c1cccc(Cl)c1 (racemic) [Example 50]", "log10 IC50": 0.40}
{"compound": "CC(NC(=O)c1ccc(F)cc1)c1ccc2c(n1)CCCN2C(=O)c1cc(F)ccn1 (stereo not drawn) [Example 282, 2,2,2-trifluoroacetate]", "log10 IC50": 0.45}
{"compound": "CC(C(=O)Nc1ccc(F)cc1)c1ccc2c(n1)CCCN2C(=O)[C@@H]1CCCO1 (single isomer, unassigned) [Example 163]", "log10 IC50": 1.34}

Provide log10 IC50 for all items below, preserving their order.
1. C[C@H](C(=O)Nc1ccc(F)cc1)c1ccc2c(c1)CCCN2C(=O)C1CCOCC1 [Example 81]
2. CC(NC(=O)c1ccc(F)cc1)c1ccc2c(n1)CCCN2C(=O)c1cc(Cl)ccn1 (stereo not drawn) [Example 277]
3. CO[C@@H](C)C(=O)N1CCCc2cc([C@H](C)C(=O)Nc3ccc(F)cc3)ccc21 (single isomer, unassigned) [Example 75]
4. CC(C(=O)Nc1ccc(F)cc1)c1ccc2c(c1)CCCN2C(=O)c1cc(C(F)F)ccn1 (stereo not drawn) [Example 38]
5. C[C@H](C(=O)Nc1ccc(F)cn1)c1ccc2c(c1)CCCN2C(=O)C1(F)CC1 (single isomer, unassigned) [Example 63]
6. Cc1cccc(N2CCCc3nc(C4(NC(=O)c5ccc(F)cc5)CC4)ccc32)n1 [Example 245]
7. CC(C(=O)Nc1ccc(F)cc1)c1ccc2c(c1)CCCN2Cc1cccc(Cl)c1 (racemic) [Example 224]
8. C[C@H](C(=O)Nc1ccc(F)cc1)c1ccc2c(c1)CCCN2C(=O)CC(C)(C)C [Example 90]

Resp:
0.68
0.36
1.79
0.76
1.22
0.43
0.90
0.85

Parameter requested: log10 IC50. Apply to each item below.
1. CC(C)(C(=O)Nc1ccc(F)cc1)c1ccc2c(n1)CCCN2C(=O)C1CC1 [Example 184]
2. Cc1nc(C(=O)N2CCCc3cc(C(C)C(=O)Nc4ccc(F)cc4)ccc32)no1 (stereo not drawn) [Example 47]
3. COc1ccc(C(=O)NCc2ccc3c(c2)CCCN3C(=O)CC(C)C)cc1 [Example 6]
4. O=C(c1cc(C2CC2)n[nH]1)N1CCCc2cc(C3(C(=O)Nc4ccc(F)cc4)CCC3)ccc21 [Example 117]

Resp:
1: 1.03; 2: 0.53; 3: 1.75; 4: 1.25
